- targetDesc: T1, human BTN2A2 CFP(Nter)-fusion protein expressed on 293F BTN3/BTN2 KO cells (human, UniProt Q8WVV5 33-523)
- T1 construct: also called pcDNA3-Zeo-BTN2A2-CFP; not shown: CFP fused at the N-terminus (CFP(Nter)-fusion)
- T1 sequence: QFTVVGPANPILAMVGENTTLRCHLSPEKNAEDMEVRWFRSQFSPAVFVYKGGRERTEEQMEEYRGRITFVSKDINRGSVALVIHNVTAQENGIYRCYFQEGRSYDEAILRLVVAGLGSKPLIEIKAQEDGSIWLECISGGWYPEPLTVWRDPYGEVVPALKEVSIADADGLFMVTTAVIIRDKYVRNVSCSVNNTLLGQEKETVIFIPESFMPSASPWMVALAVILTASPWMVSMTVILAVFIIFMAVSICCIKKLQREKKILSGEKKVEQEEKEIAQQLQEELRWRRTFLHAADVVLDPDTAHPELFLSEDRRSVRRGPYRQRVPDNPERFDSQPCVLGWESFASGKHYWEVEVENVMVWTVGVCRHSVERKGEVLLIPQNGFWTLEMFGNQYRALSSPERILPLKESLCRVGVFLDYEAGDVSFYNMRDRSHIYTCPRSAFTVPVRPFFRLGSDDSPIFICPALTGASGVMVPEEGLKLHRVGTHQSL
- assayProcedure: flow cytometry (PE MFI in CFP-positive cells) on 293F BTN3/BTN2 KO cells transfected with BTN2A2-CFP
reportedProperty: EC50 (µg/mL)
Report the figure in µg/mL without appending any unit label.

binder	unitName	measurement
mAb5 (mouse anti-human BTN2 mAb 8.15) (antibody, V domains shown, Mouse IgG1 purified from hybridoma supernatant; also called CNCM I-5235) VH: EVKLLESGGGLVQPGGSLKLSCAASGFDFSGYWMTWVRQAPGKGLEWIGEINPDSSTINYTPSLRDKFIISRDNAKNTLYLQMSKVRSEDTALYFCARGSYYPSYWGQGTLVTVSA VL: DIVLTQSPASLAVSLGQRATISCRASKSVSSSGYSYMNWYQQKPGQPPKLLIYLASNLESGVPARFSGSGSGTDFTLNIHPVEDEDAATYYCQHSRELPHTFGGGTKLEIK	µg/mL	0.5

Return reported EC50. Input binder: mAb1 (mouse anti-human BTN2 mAb 4.15) (antibody, V domains shown, Mouse IgG1 purified from hybridoma supernatant; also called CNCM I-5231) VH: QVQLQQSGAELVKPGASVKLSCKASGYIFTSYDINWVRQRPEQGLEWIGWIFPGDDSIIQNEKFKGKATLTTDKSSSTVYMQLSRLTSEDSAVYFCARLGPLRGFTYWGQGTLVTVSA VL: DIVLTQSPASLAVSLGQRATISCRASESVDRYGSSFMHWYQQKPGQPPKLLIYRASNLESGIPARFSGSGSRTDFTLTINPVEADDVATYYCQQSNEDPWTFGGGTKLEIK
0.01

Return reported EC50. Input binder: mAb6 (mouse anti-human BTN2 mAb 8.16) (antibody, V domains shown, Mouse IgG1 purified from hybridoma supernatant; also called CNCM I-5236) VH: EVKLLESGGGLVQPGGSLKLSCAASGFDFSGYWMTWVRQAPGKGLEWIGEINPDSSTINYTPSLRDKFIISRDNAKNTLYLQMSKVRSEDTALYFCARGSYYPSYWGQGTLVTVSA VL: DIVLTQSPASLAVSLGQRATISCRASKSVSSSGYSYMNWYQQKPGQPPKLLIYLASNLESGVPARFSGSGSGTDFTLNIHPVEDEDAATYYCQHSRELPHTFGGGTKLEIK
2.4
